Exercise: state measured AUC(0-t) for each of the compounds provided.
- EXPERIMENT_NOTES: clinical
- CONDITIONS: both, human, plasma, oral, 50 mg
Answers are plain numbers, in ng·h/mL.

COc1ccc2[nH]c([S+]([O-])Cc3ncc(C)c(OC)c3C)nc2c1 (stereo not drawn)
852
Cn1c(=O)c2c(ncn2C)n(C)c1=O
41100

Could you now look at the following compound, please?
query: Quickly give me recorded AUC(0-t) for Cc1ncc2n1-c1ccc(Cl)cc1C(c1ccccc1F)=NC2
result: 31.7

----------
- EXPERIMENT_NOTES: clinical
- CONDITIONS: both, human, plasma, oral, 50 mg
REPORTED_ENDPOINT: Cmax (µg/mL)
One number for each entry, in µg/mL.

Cn1c(=O)c2c(ncn2C)n(C)c1=O [Caffeine, caffeine]
2.64
Cc1ncc2n1-c1ccc(Cl)cc1C(c1ccccc1F)=NC2 [Midazolam, midazolam]
0.0128

# input for lookup
query: Determine its reported Cmax: COc1ccc2[nH]c([S+]([O-])Cc3ncc(C)c(OC)c3C)nc2c1 (stereo not drawn) [Omeprazole, omeprazole]
result: 0.42

----------
- EXPERIMENT_NOTES: clinical
- CONDITIONS: both, human, plasma, po, 50 mg
REPORTED_ENDPOINT: AUC(0-inf) (ng·h/mL)
Give bare numbers, in ng·h/mL.

query: Provide one value: measured AUC(0-inf) of N#Cc1ccc([C@H]2CCc3cncn32)c(F)c1 [Osilodrostat]
result: 3430

----------
- CONDITIONS: both, human, plasma, oral
Assign AUC(0-inf) to each entry below.
One number for each entry, in ng·h/mL.

Solved entries (count: 3):
Cn1c(=O)c2c(ncn2C)n(C)c1=O [Caffeine, caffeine]
16200
COc1ccc2[nH]c([S+]([O-])Cc3ncc(C)c(OC)c3C)nc2c1 (stereo not shown) [Omeprazole, omeprazole]
618
Cc1ncc2n1-c1ccc(Cl)cc1C(c1ccccc1F)=NC2 [Midazolam, midazolam]
22

Turning now to a further compound:
query: Provide one value: measured AUC(0-inf) of COc1ccc2c(c1)[C@]13CCCC[C@@H]1[C@H](C2)N(C)CC3 [Dextromethorphan, dextromethorphan]
result: 22.8

----------
- EXPERIMENT_NOTES: clinical
- CONDITIONS: both, human, plasma, po, 50 mg
REPORTED_ENDPOINT: Cmax (ng/mL)
Give bare numbers, in ng/mL.

query: Output Cmax of N#Cc1ccc([C@H]2CCc3cncn32)c(F)c1 [Osilodrostat]
result: 392

----------
- CONDITIONS: both, human, plasma, oral
REPORTED_ENDPOINT: Cmax (ng/mL)
Answers are plain numbers, in ng/mL.

query: Please list Cmax recorded for the compound Cn1c(=O)c2c(ncn2C)n(C)c1=O [Caffeine, caffeine]
result: 2500

----------
Answer each item with its documented half-life.
- CONDITIONS: both, human, plasma, oral
Give bare numbers, in h.

Here's what some known entries look like.
COc1ccc2c(c1)[C@]13CCCC[C@@H]1[C@H](C2)N(C)CC3 [Dextromethorphan, dextromethorphan]
7.63
Cn1c(=O)c2c(ncn2C)n(C)c1=O [Caffeine, caffeine]
5.39
COc1ccc2[nH]c([S+]([O-])Cc3ncc(C)c(OC)c3C)nc2c1 (stereo not shown) [Omeprazole, omeprazole]
0.77

We now examine a further molecule.
query: Specify half-life for Cc1ncc2n1-c1ccc(Cl)cc1C(c1ccccc1F)=NC2 [Midazolam, midazolam] and stop.
result: 4.44
